- Assay explanation: Inhibition of human synovial group2 sPLA2 at 10 uM by liquid scintillation counting

# Compound, inhibition [%]
rows = [
    ("CC1=C(CC/C(C)=C/CCC2=CC[C@H](C3=CC(=O)O[C@H]3O)O[C@H]2O)C(C)(C)CCC1", 93.2),
    ("C[C@H]1CC[C@@]23C[C@]2(C)CCC[C@@H]3[C@@]1(C)CCC1=CC[C@H](C2=CC(=O)O[C@H]2O)OC1 [cacospongionolide]", 90.7),
    ("CC1=CCC[C@@H]2[C@@](C)(CCC3=CC[C@H](C4=CC(=O)O[C@H]4O)OC3)[C@@H](C)CC[C@@]12C [cacospongionolide E]", 96.7),
    ("C=C1CCC[C@H]2[C@](C)(CCC3=CCC(C4=CC(=O)OC4O)OC3)[C@H](C)CC[C@]12C (some centres undefined) [CACOSPONGIONOLIDE B]", 86.7),
]
